Hello, the source for this data is patent US20160075695A1, in case you need it.

- System: MM.1S cells
- experiment_notes: MM.1S viability assay (CellTiter Glo)
- Format: cell-based
- measurement_context: Homo sapiens, MM1.S, 72 hr incubation, read-out: MM.1S Cell viability (EC50)
parameter: EC50 (nM)
One number for each entry, in nM.

Exercise: Fill in reported EC50 for this entry: Cc1noc(C)c1-c1cc(C(O)(c2cccnn2)C2CCCO2)c2nc(C3CC3)[nH]c2c1 (single isomer, unassigned) [Compound 1020-289]
Solution: 17.8

###

- target_or_system: BRD4-1 (Homo sapiens, UniProt O60885)
- Construct: made in house; host or cells: Escherichia coli
- experiment_notes: BRD4-1 Ligand KI assay (TR-FRET, Cy5 labeled probe displacement)
- Assay type: binding
- measurement_context: 2 nM BRD4-1, 1.0 nM labeled ligand, 60 minutes at 25° C.; read-out: BRD4-1 Ligand KI (IC50)
Provide the recorded IC50 for the entries that follow.
One number for each entry, in nM.

- compound: "Cc1noc(C)c1-c1cc(C(O)(c2ncccn2)c2ccc(F)cc2F)c2nc(C3CC3)[nH]c2c1 (stereo not drawn)"
  output_unit: "nM"
  IC50: 4.7

Give IC50 for all compounds that follow.
1. Cc1noc(C)c1-c1cc(C(O)(c2ccccn2)c2ccccn2)c2nc(C3CC3)[nH]c2c1
2. Cc1noc(C)c1-c1cc(C(O)(c2ccccc2)c2ccccn2)c2nc(C3CC3)[nH]c2c1 (stereo not drawn)
3. Cc1noc(C)c1-c1cc(C(O)(c2ccccc2)c2cccnc2)c2nc(C3CC3)[nH]c2c1 (stereo not drawn)
4. Cc1cccc(C(O)(c2cc(-c3c(C)noc3C)cc3[nH]c(C4CC4)nc23)C2CCCO2)n1 (racemic)
5. Cc1noc(C)c1-c1cc(C(O)(c2nccs2)c2nccs2)c2nc(C3CC3)[nH]c2c1

Solution:
1: 7.2; 2: 10.7; 3: 10.4; 4: 3.8; 5: 4
